System: HCC-2998 colon
Assay: NCI-60 one-dose screen, 48 h
Settings: 10 µM unless noted
Compounds without any hit were thinned out: in the full panel of roughly 83,000, 20% have a hit. The source made the active and inactive calls. The calls were made as follows: active = growth percent below 10; inactive = the rest.
Returns: one label drawn from YES for active, NO for inactive

Test call, this compound: O=c1oc2ccc(-c3ccc(F)cc3F)cc2c(=O)n1-c1ccc(Cl)c(C(F)(F)F)c1
NO

Look up the recorded call for COc1cc(C(C)n2cc(-c3ccccc3)nn2)ccc1OC1CCCCC1 (stereo not given) in this test.
NO

What is the recorded call for this compound in the test? CCCCC1COc2cccc3c2N1C=C/C3=C\C(=O)N(C)c1ccccc1 (stereo not given)
NO

// return assay outcome for COc1ccc(N(C)c2nc(N)nc3sc4c(c23)CCCC4)cc1
YES

Name the outcome recorded for O=C(CSc1nc2ccccc2c(=O)n1-c1ccccc1)Nc1ccc(C(=O)/C=C/c2ccc(Cl)cc2)cc1 in the assay.
NO

Source listed as PubChem BioAssay (NCI).
